All values here come from patent US8642626B2.

Each entry below lists one item and its recorded IC50 value.
Target: rat metabotropic glutamate receptor (mGlu2) (Rattus norvegicus, UniProt P31421)
Construct: expressed in transfected cells
Sequence (P31421 19-872): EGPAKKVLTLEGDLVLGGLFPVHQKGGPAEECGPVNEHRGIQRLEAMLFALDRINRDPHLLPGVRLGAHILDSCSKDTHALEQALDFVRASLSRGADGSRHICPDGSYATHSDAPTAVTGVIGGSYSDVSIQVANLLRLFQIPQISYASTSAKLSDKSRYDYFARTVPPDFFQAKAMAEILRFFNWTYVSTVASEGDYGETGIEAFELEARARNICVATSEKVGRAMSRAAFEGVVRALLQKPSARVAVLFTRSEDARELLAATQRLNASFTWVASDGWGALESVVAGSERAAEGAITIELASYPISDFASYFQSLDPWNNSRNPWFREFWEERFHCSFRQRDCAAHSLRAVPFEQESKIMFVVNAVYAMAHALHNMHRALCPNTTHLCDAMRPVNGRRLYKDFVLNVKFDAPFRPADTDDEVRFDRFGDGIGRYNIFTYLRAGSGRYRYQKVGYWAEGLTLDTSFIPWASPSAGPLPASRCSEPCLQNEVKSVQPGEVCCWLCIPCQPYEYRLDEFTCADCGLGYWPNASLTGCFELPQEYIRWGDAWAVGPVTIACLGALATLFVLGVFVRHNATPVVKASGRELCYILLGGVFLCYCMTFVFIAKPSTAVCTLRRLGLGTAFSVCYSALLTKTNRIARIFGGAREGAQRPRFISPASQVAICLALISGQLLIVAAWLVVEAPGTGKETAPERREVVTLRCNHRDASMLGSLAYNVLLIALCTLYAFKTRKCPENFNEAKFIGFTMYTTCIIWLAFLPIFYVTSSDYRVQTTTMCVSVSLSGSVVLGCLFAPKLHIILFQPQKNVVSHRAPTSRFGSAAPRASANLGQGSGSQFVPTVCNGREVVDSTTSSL
Test: [35S]GTPγS binding test (1), crude membrane fraction of CHO cells stably expressing rat mGlu2
Format: biochemical
Conditions: inhibition of glutamic acid (20 μM)-stimulated specific [35S]GTPγS binding, rat mGlu2 CHO membranes
Method: [^35S]GTPγS Binding Test (1) (Preparation of Crude Membrane Fraction of CHO Cells Stably Expressing the Rat Metabotropic Glutamate Receptor (mGlu2)) CHO cells stably expressing the rat mGlu2 were cultured in a 10% dialyzed fetal bovine serum-containing Dulbecco's Modified Eagle's Medium [1% proline, 50 units/mL penicillin, 50 μg/mL streptomycin, and 2 mM L-glutamine (to be added when used)] at 37° C. in 5% CO2. […]
// note: answer is a bare numeric in nM

Study these solved cases before continuing.
                                   compound  measurement_name  assay_result
0  Cn1ncc(C#Cc2ccc(S(N)(=O)=O)cc2)c1-c1cnn(-c2ccc(C(F)(F)F)cc2)c1 [Example 64]              IC50          9.77
1  Cn1ncc(C#Cc2cccc(S(N)(=O)=O)c2)c1CCc1cccc(C(F)(F)F)c1 [Example 94]              IC50          18.2
2  Cn1ncc(C#Cc2cccc(S(N)(=O)=O)c2)c1CCOc1ccc(C(F)(F)F)cc1 [Example 106]              IC50          7.88
3  Cn1ncc(C#Cc2ccc(S(N)(=O)=O)cc2)c1-c1ccc(C(F)(F)F)cn1 [Example 50]              IC50          76.4

Proceeding to the next compound to report its IC50.
input: What measured IC50 goes with Cn1ncc(C#Cc2cccc(S(N)(=O)=O)c2)c1OCc1ccc(C(F)(F)F)cc1 [Example 89] ?
output: 55.1
